Would you mind telling me the reported normalised response of each entry?
Tested on: CAL-51
Measurement description: normalised response (% of control), CellTox Green; higher = less cell death (100 = DMSO, 0 = benzethonium chloride kill control)
Assay conditions: incubation time: 72 h
Quick note: give the figure in %, leave out the unit.

Q: Param item = CC(C)n1nc(-c2ccc3oc(N)nc3c2)c2c(N)ncnc21 [INK128] (10 nM) ; retrieve measured normalised response.
Ans: 99.6

Q: Can you share its normalised response? I mean this compound: Cc1c(C(=O)Nc2ccc(N3C[C@@H](C)O[C@@H](C)C3)nc2)cccc1-c1ccc(OC(F)(F)F)cc1 [Erismodegib] (10000 nM)
Ans: 99.8

Q: Find the recorded normalised response belonging to CC(C)(C)Cn1c(N)nc2ccc(-c3[nH]c(C(C)(C)C)nc3-c3ccc(F)cc3)nc21 (10000 nM) and report it.
Ans: 104

Q: Param item = O=C(O)CC[C@H]1CC[C@@](c2cc(F)ccc2F)(S(=O)(=O)c2ccc(Cl)cc2)CC1 [MK-0752] (100 nM) ; retrieve measured normalised response.
Ans: 116

Q: I have this compound here, Cc1c(C(=O)Nc2ccc(N3C[C@@H](C)O[C@@H](C)C3)nc2)cccc1-c1ccc(OC(F)(F)F)cc1 [Erismodegib] (1000 nM) , and I need its recorded normalised response.
Ans: 97.5

Q: Look up normalised response for this compound: C[C@@H](C(=O)O)c1ccc(-c2ccccc2)c(F)c1 [Tarenflurbil] (100 nM)
Ans: 92.8

====

System: MFM-223
Measurement description: drug sensitivity score (DSS), CellTiter-Glo (DSS (AUC-based score)); higher = stronger drug effect (viability inhibition or cytotoxicity); extreme values may be limits of the assay
Assay conditions: incubation time: 72 h
Provide the recorded drug sensitivity score for the entries that follow.
Answer with a bare number; do not write a unit.

Q: Query: drug sensitivity score; subject: COc1cc2c(cc1-c1c(C)noc1C)ncc1[nH]c(=O)n([C@H](C)c3ccccn3)c12 [I-BET151]
Ans: 6.13

Q: Which drug sensitivity score is listed for CO[C@H]1C[C@@H]2CC[C@@H](C)[C@@](O)(O2)C(=O)C(=O)N2CCCC[C@H]2C(=O)O[C@H]([C@H](C)C[C@@H]2CC[C@@H](O)[C@H](OC)C2)CC(=O)[C@H](C)/C=C(\C)[C@@H](O)[C@@H](OC)C(=O)[C@H](C)C[C@H](C)/C=C/C=C/C=C/1C [Sirolimus] ?
Ans: 5.41

Q: Query: drug sensitivity score; subject: O=NN(CCCl)C(=O)NC1CCCCC1 [Lomustine]
Ans: 0

Q: Value lookup for drug sensitivity score; key = NC(=O)NO [Hydroxyurea]
Ans: 0

Q: GET /values?readout=drug sensitivity score&item= NC1(c2ccc(-c3nc4ccn5c(=O)[nH]nc5c4cc3-c3ccccc3)cc2)CCC1 [MK-2206]
Ans: 1.78

Q: Query: drug sensitivity score; subject: CC[C@@H]1C(=O)N(C)c2cnc(Nc3ccc(C(=O)N[C@H]4CC[C@H](N5CCN(CC6CC6)CC5)CC4)cc3OC)nc2N1C(C)C [Volasertib]
Ans: 15.5

Q: Look at this molecule and give its reported drug sensitivity score. Cn1cc(C[C@@H](N)C(=O)O)c2ccccc21 [1-methyl-D-tryptophan]
Ans: 0

Q: So what's the measured drug sensitivity score for this one? Nc1nc(Cl)nc2c1ncn2[C@@H]1O[C@H](CO)[C@@H](O)[C@@H]1F [Clofarabine]
Ans: 0
